Hey, just so you know, these numbers are from the nanobody polyreactivity screen of Harvey et al. (2022).

test: yeast display, Sf9 membrane polyspecificity reagent, FACS + sequencing; frameworks hold sequencing errors
ATTRIBUTE_MEASURED: polyreactivity (PSR sort gate)

{"ORDERED_RESIDUES": "QVQLVESGGGLVQAGGSLRLSCAASGITFDGYDMGWYRQAPGKEREMVATIDSGGITYYADSVKGRFTISRDNAKNTVYLQMNSLKPEDTAVYYCNADEWYYNFDIVEFDYWGQGTQVTVSS", "polyreactivity (PSR sort gate)": "low polyreactivity"}
{"ORDERED_RESIDUES": "QVQLVESGGGLVQAGGSLRLSCAASGFIFVGNAMGWYRQAPGKERELVAAISSGTSTNYADSVKGRFTISRDNAKNTVYLQMNSLKPEDTAVYYCNAEVPATNEYTKRMDYWGQGTQVTVSS", "polyreactivity (PSR sort gate)": "low polyreactivity"}
{"ORDERED_RESIDUES": "QVQLVESGGGLVKAGGPLRLSCAASGSIFYYNPMGWYRQAPGTERELVAAITSGDSTNYADSVKGRFTISRDNAKNSVYLQLNSLKPEDTAVYYCAADYLAALTYYRTYDYWGEGTQVTVSS", "polyreactivity (PSR sort gate)": "low polyreactivity"}
{"ORDERED_RESIDUES": "QVQLVESGGGLVQAGGSLRLSCASSGSIFALNAMGWYRQAPGKERELVAAISSSGGNTYYADSVKGRFTISRDNAKNTVYLQMNSLKPEDTAVYYCNRVAYRNDFDYWGQGTQVTVSS", "polyreactivity (PSR sort gate)": "low polyreactivity"}

Turning to the following sequence.
GET /value?item= QVQLVESGGGLVQAGGSLRLSCASSGSTFYGNAMGWYRQEPGKERELVASISSGGTNYADSVKGRFTISRDNAKNTVYLQMNSLKPEDTAVYYLNADYIDTFRGFDYWGQGTQVTVSS &field=polyreactivity (PSR sort gate) returns low polyreactivity

###

assay: yeast display, Sf9 membrane polyspecificity reagent, FACS + sequencing; frameworks hold sequencing errors
ATTRIBUTE_MEASURED: polyreactivity (PSR sort gate)

{"ORDERED_RESIDUES": "QVQLVESGGCLVQAGGSLRLSCAASGLTFSRYAMGWYRQAPGKERELVASSSQGGGSTYYADSVKGRFTISRDNAKITVYFQMNSLIPEDTAVYYCAASWYYSLQRYGYWGQGTQETVSS", "TEST_VALUE": "high polyreactivity"}
{"ORDERED_RESIDUES": "QVQLVESGAGLVQAGGSLRLICAATGFTLGSNAMGSYRKAPGKERELVAAISKSGGSTYYADSVKGRFTISRDNAKNTVYLQMNSLKPDDTAVYYCAARYLYQGYRYDYWGQGTQVTVSS", "TEST_VALUE": "high polyreactivity"}

###

test: yeast display, Sf9 membrane polyspecificity reagent, FACS + sequencing; frameworks hold sequencing errors
ATTRIBUTE_MEASURED: polyreactivity (PSR sort gate)

Some entries whose results are on file:
{"ORDERED_RESIDUES": "QVQLEESGGGLVQAGGILRLSCAASGFTLVYYAMGSYRQAPGKERELVATISGNGGRTYYADSVKGRFTISRDNAKNTDNLQMNSLKPEDTAVYYCAALLYIGSVGYDYWGQGTQVTVSS", "polyreactivity (PSR sort gate)": "low polyreactivity"}
{"ORDERED_RESIDUES": "QVQLVESGRGLVQAGGSLRISCAASGFTFSRYAMGWYRQAPGKERELVAAISLRGGRTYYADSVKGRFTISRDNAKNTVYLQMNSLKPEDTAVYYCNRDYRGPYYYWGQGTQVTVSS", "polyreactivity (PSR sort gate)": "high polyreactivity"}
{"ORDERED_RESIDUES": "QVQLVESGGGLVQAGGSLRLSCAASGPTFWVYAMGWNRQAPGKERELVAAISRSGVSTYYADSVKGRFTISRDNAKNTVYLQMNSLKPEDTAVYYCAAPLIYTPLKYHYWGQGTQVTVSS", "polyreactivity (PSR sort gate)": "low polyreactivity"}
{"ORDERED_RESIDUES": "QVQLVESGGGLVQAGGSLRLSCAASGSTFPYYTMGWYRQAPGKERELVAAITWRGGRTYYADSVKGRFTISRDNAKNTVYLQMNSLKPEDTAVYYCAVYRRWYSGLYDYWGQGTQVTVSS", "polyreactivity (PSR sort gate)": "high polyreactivity"}

# next sequence below
The value of polyreactivity (PSR sort gate) measured for the sequence QVQLVESGGGLVQAGGSLRLSCAASGFIFRYYAMGWYRQAPGKERELVASIDWSGGNTYYADSVKGRFTISRDNAKNTVYLQMNSLKPEDTAVYYCNRRGMDWGQVTQVTVSS turned out to be low polyreactivity
